System: S. aureus MRSA (ATCC 33591)
testSummary: MIC susceptibility testing
Type: cell-based, Staphylococcus aureus
measurementParameters: Staphylococcus aureus, MRSA ATCC33591; read-out: (G) MRSA (ATCC33591) MIC
Excerpt: Media and culture conditions. Mueller Hinton broth (MHB), cation adjusted Mueller Hinton broth (CA-MHB), and Brain Heart Infusion broth (BHI) were purchased from Becton Dickinson (Franklin Lakes, N.J.). Tryptic soy agar (TSA) plates, TSA with 5% sheep blood plates, and CA-MHB with 3% laked horse blood were purchased from Remel (San Diego, Calif.). MHB was used to assay all Staphylococcus aureus strains. […]
In this section, each of the compounds is paired with its reported MIC.
readoutKind: MIC (mg/L)

compound | readoutQualifier | endpointValue
COc1ccc(Cc2cn(Cc3nc4nc(Cl)ccc4[nH]3)c(=O)n2CC(C)(C)N)c(Cl)c1 | = | 1.8
Clc1ccc(-c2cccc3nc(Cc4nc5nc(Cl)ccc5[nH]4)cn23)c(Cl)c1 | = | 0.268
CCn1c(C(=O)c2ccc(Cl)cc2Cl)cn(Cc2nc3ccc(Cl)nc3[nH]2)c1=O | = | 0.359
COc1ccc(-c2ccc(NC(C)=O)c3nc(Cc4nc5nc(Br)ccc5[nH]4)cn23)c(Cl)c1 | = | 0.435
COc1ccc(-c2cccc3nc(Cc4nc5nc(Cl)ccc5[nH]4)cn23)c(Cl)c1 | = | 1.04
O=c1n(Cc2nc3nc(F)ccc3[nH]2)cc(Cc2ccc(Cl)cc2Cl)n1CCO | > | 2.5
C[S+]([O-])c1nc(Cc2ccc(Cl)cc2Cl)cn1Cc1nc2nc(Cl)ccc2[nH]1 (centres unmarked) | = | 2.36
COc1ccc(-c2cccc3c2CN(Cc2nc4c(C#N)c(Cl)ccc4[nH]2)C3)c(Cl)c1 | = | 0.762

* * *

assaySystem: MetRS (C. parvum) (Cryptosporidium parvum, UniProt Q5CVN0)
Sequence (Q5CVN0 entry or part of it): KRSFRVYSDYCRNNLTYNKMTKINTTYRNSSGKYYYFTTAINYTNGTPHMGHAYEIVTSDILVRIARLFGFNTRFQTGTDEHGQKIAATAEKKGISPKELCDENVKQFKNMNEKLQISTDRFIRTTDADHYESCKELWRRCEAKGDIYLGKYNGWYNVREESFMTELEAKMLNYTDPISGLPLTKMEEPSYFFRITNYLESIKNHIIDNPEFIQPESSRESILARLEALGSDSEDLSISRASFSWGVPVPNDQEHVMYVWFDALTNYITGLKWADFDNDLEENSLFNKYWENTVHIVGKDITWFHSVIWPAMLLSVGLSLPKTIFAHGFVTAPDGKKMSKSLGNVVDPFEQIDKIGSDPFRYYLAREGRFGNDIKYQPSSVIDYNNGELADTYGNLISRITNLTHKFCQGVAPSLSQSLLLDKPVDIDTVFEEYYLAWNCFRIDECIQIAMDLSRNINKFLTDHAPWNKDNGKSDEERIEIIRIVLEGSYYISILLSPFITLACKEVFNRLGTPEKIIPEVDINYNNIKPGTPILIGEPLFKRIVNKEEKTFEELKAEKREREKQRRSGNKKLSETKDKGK
testSummary: MetRS (C. parvum) enzyme inhibition
Type: biochemical
measurementParameters: read-out: (C) MetRS (C. parvum) IC50
pIC50: −log10 of the molar value.
readoutKind: pIC50

compound | readoutKind | endpointValue
CCCn1c(Cc2ccc(Cl)cc2Cl)cn(Cc2nc3nc(F)ccc3[nH]2)c1=O [Compound 2069] | pIC50 | > 7.40
COc1cc(Cl)c(-c2cccc3c2CN(Cc2nc4nc(Cl)ccc4[nH]2)C3=O)cc1OC [Compound 2231] | pIC50 | > 7.40
O=c1n(Cc2nc3ccc(Cl)nc3[nH]2)cc(Cc2ccc(Cl)cc2Cl)n1CCO [Compound 2213] | pIC50 | > 7.40
COc1ccc(Cc2cn(Cc3nc4ncc(Cl)c(C)c4[nH]3)c(=O)n2CC(C)(C)O)c(Cl)c1 [Compound 2238] | pIC50 | 6.90

* * *

assaySystem: MetRS (C. parvum) (Cryptosporidium parvum, UniProt Q5CVN0)
testSummary: MetRS (C. parvum) enzyme inhibition
Type: biochemical
measurementParameters: read-out: (C) MetRS (C. parvum) IC50
readoutKind: log10 IC50 (log10 of the value in nM)

molecule | log10 IC50
COc1ccc(-c2cccc3c2CN(Cc2nc4c(C#N)c(Cl)ccc4[nH]2)C3)c(Cl)c1 | 1.93
COc1ccc(Cc2cn(Cc3nc4c(C)c(Cl)ccc4[nH]3)c(=O)n2CC(C)(C)O)c(Cl)c1 | 1.61
O=C(O)Cn1c(C(O)c2ccc(Cl)cc2Cl)cn(Cc2nc3ccc(Cl)nc3[nH]2)c1=O (centres unmarked) | 1.60
COc1ccc(-c2nccc3nn(Cc4nc5nc(Cl)ccc5[nH]4)cc23)c(Cl)c1 | 2.34
COc1ccc(-c2cccc3c2CN(Cc2nc4nc(C(F)(F)F)nc(N)c4[nH]2)C3=O)c(Cl)c1 | 2.63

* * *

System: E. faecium (ATCC 19434)
testSummary: MIC susceptibility testing
Assay type: cell-based
measurementParameters: Enterococcus faecium, ATCC19434; read-out: E. faecium (ATCC 19434) MIC
In this section, each of the compounds is paired with its reported MIC.
readoutKind: MIC (µg/mL)

smilesRecord | endpointValue
O=C(O)c1cn(C2CC2)c2cc(N3CCNCC3)c(F)cc2c1=O | 5
CCn1c(Cc2ccc(OC)cc2Cl)cn(Cc2nc3nc(Cl)ccc3[nH]2)c1=O | 0.078
CCn1c(Cc2ccc(Cl)cc2Cl)cn(Cc2nc3nc(F)ccc3[nH]2)c1=O | 0.313
Fc1ccc2nc(NCCCNCc3cc(Cl)cc(Cl)c3)[nH]c2n1 | 0.625

* * *

assaySystem: UniProtKB Q5CVN0
testSummary: MetRS (C. parvum) enzyme inhibition
Format: biochemical
measurementParameters: read-out: (C) MetRS (C. parvum) IC50

compound | IC50
COCCCn1c(Cc2ccc(Cl)cc2Cl)cn(Cc2nc3ccc(F)nc3[nH]2)c1=O [Compound 2082] | < 0.04 µM
CC(=O)Nc1nc(Cc2ccc(Cl)cc2Cl)cn1Cc1nc2ccc(Cl)cc2[nH]1 [Compound 2193] | 0.232 µM
O=c1n(Cc2nc3nc(Cl)ccc3[nH]2)cc(Cc2ccc(Cl)cc2Cl)n1CC1(O)CC1 [Compound 2225] | 0.0492 µM
OCCNc1nc(Cc2ccc(Cl)cc2Cl)cn1Cc1nc2ccc(Cl)cc2[nH]1 [Compound 2196] | > 1 µM

* * *

testSummary: Cytotoxicity testing on mammalian cells (AlamarBlue, 48 hours)
Type: cell-based
measurementParameters: human, HepG2 cells (human hepatocellular carcinoma), read-out: Mamm. cells (HepG2) CC50
In this section, each of the compounds is paired with its reported CC50 at 48 h.

smilesRecord | CC50 at 48 h
CCn1c(Cc2ccc(Cl)cc2Cl)cn(Cc2nc3nc(F)ccc3[nH]2)c1=O | > 21 µg/mL
Clc1cc(Cl)cc(CNCCCNc2nc3ncccc3[nH]2)c1 | > 17.5 µg/mL
CCn1c(Cc2ccc(OC)cc2Cl)cn(Cc2nc3nc(Cl)ccc3[nH]2)c1=O | > 21.6 µg/mL
CCn1c(Cc2ccc(OC)cc2Cl)cn(Cc2nc3nc(F)ccc3[nH]2)c1=O | > 20.8 µg/mL

* * *

Test system: S. pyogenes (ATCC 19615)
testSummary: MIC susceptibility testing
Format: cell-based
measurementParameters: Streptococcus pyogenes, ATCC19615, S. pyogenes ATCC 19615; read-out: (H) S. pyogenes (ATCC 19615) MIC
readoutKind: MIC

compound | readoutKind | endpointValue
CCn1c(C(O)c2ccc(OC)cc2Cl)cn(Cc2nc3ccc(Cl)nc3[nH]2)c1=O (stereo not drawn) [Compound 2297] | MIC | > 8 µg/mL
CC(C)NCC(O)Cn1c(Cc2ccc(Cl)cc2Cl)cn(Cc2nc3cc(F)c(F)cc3[nH]2)c1=O (stereo not drawn) [Compound 2293] | MIC | > 8 µg/mL
CCn1c(Cc2c(Cl)cc(Cl)cc2OC)cn(Cc2nc3ccc(Cl)nc3[nH]2)c1=O [Compound 2295] | MIC | 1.16 µg/mL

* * *

Tested on: C. parvum
testSummary: C. parvum growth inhibition
Type: cell-based, Cryptosporidium parvum
measurementParameters: Cryptosporidium parvum; read-out: (J) C. parvum EC50
pEC50: −log10 of the molar value.
In this section, each of the compounds is paired with its reported pEC50.

compound | readoutQualifier | pEC50
Clc1ccc(Cc2cn(Cc3nc4nc(Cl)ccc4[nH]3)cn2)c(Cl)c1 | = | 5.70
COC(=O)c1c(Cl)ccc2[nH]c(Cn3cc(Cc4ccc(OC)cc4Cl)n(CC(C)(C)O)c3=O)nc12 | < | 5.70
O=c1n(Cc2nc3c(F)c(F)ccc3[nH]2)cc(Cc2ccc(Cl)cc2Cl)n1CC1CCNCC1(F)F (stereo not drawn) | < | 5.70
Clc1ccc(Cc2cn(Cc3nc4cc(Cl)ccc4[nH]3)cn2)c(Cl)c1 | < | 5.70
O=c1n(Cc2nc3nc(F)ccc3[nH]2)cc(Cc2ccc(Cl)cc2Cl)n1CC(F)F | = | 6.71
COc1ccc(-c2cccn3c(=S)n(Cc4nc5nc(Cl)ccc5[nH]4)cc23)c(Cl)c1 | = | 6.12
COc1ccc(-c2ccc(NS(C)(=O)=O)c3nc(Cc4nc5nc(Cl)ccc5[nH]4)cn23)c(Cl)c1 | = | 5.92
OCCOc1cc(-c2cccc3nc(Cc4nc5nc(Cl)ccc5[nH]4)cn23)c(Cl)cc1Cl | < | 5.70
COc1ccc(-c2cnn3c2CN(Cc2nc4nc(F)ccc4[nH]2)CC3)c(Cl)c1 | = | 5.75
COc1ccc(-c2ccc(NC(C)=O)c3nc(Cc4nc5nc(F)ccc5[nH]4)cn23)c(Cl)c1 | = | 6.20
CCn1c(Cc2ccc(Cl)cc2Cl)cn(Cc2nc3ccc(F)c(F)c3[nH]2)c1=O | = | 5.82
NC(=O)Cn1c(C(=O)c2ccc(Cl)cc2Cl)cn(Cc2nc3ccc(Cl)nc3[nH]2)c1=O | < | 5.70
COc1cc(Cl)c(Cc2cn(Cc3nc4ccc(Cl)nc4[nH]3)c([S+](C)[O-])n2)cc1OC (stereo not drawn) | = | 5.80
CCn1c(Cc2ccc(Cl)cc2Cl)cn(Cc2nc3c(ccc(Cl)[n+]3[O-])[nH]2)c1=O | < | 5.70
CCn1c(C(=O)c2ccc(Cl)cc2Cl)cn(Cc2nc3ccc(Cl)nc3[nH]2)c1=O | < | 5.70
C[S+]([O-])c1nc(Cc2ccc(Cl)cc2Cl)cn1Cc1nc2ccc(F)nc2[nH]1 (stereo not drawn) | = | 5.91
COc1cc(-c2cccc3nc(Cc4nc5nc(Br)ccc5[nH]4)cn23)c(Cl)cc1Cl | = | 5.70
CC(C)(O)Cn1c(Cc2ccc(Cl)cc2Cl)cn(Cc2nc3ccc(Cl)nc3[nH]2)c1=O | = | 5.93
CCn1c(Cc2ccc(OC)cc2Cl)cn(Cc2nc3nc(F)ccc3[nH]2)c1=O | = | 7.28
COC(=O)Cn1c(C(O)c2ccc(Cl)cc2Cl)cn(Cc2nc3ccc(Cl)nc3[nH]2)c1=O (stereo not drawn) | < | 5.70
CCOC(=O)Nn1c(C(=O)c2ccc(Cl)cc2Cl)cn(Cc2nc3ccc(Cl)nc3[nH]2)c1=O | < | 5.70
COc1ccc(-c2cccc3c2CN(Cc2nc4nc(C)nc(N)c4[nH]2)C3=O)c(Cl)c1 | < | 5.70
COc1ccc(Cc2cn(Cc3nc4c(C)c(Cl)ccc4[nH]3)c(=O)n2CC(C)(C)O)c(Cl)c1 | < | 5.70
COc1ccc(-c2ccc(NC(C)=O)c3nc(Cc4nc5nc(Cl)ccc5[nH]4)cn23)c(Cl)c1 | = | 6.84
O=C(c1cn(Cc2nc3ccc(Cl)nc3[nH]2)c(=O)[nH]1)c1ccc(Cl)cc1Cl | < | 5.70
COc1cc(Cl)c(-c2cccc3nc(Cc4nc5nc(Cl)ccc5[nH]4)cn23)cc1OC | < | 5.70
COc1ccc(Cc2cn(Cc3nc4c(F)c(F)ccc4[nH]3)c(=O)n2CC(F)F)c(Cl)c1 | = | 6.47
